target: mouse HER2 (23-653) (Mus musculus); test: Surface plasmon resonance (SPR) for assessment of peptide affinity, mouse HER2; type: binding; design: mouse HER2 (23-653) using a Cy5 labeled peptide as a probe; made in house; details: SPR, mouse HER2 extracellular domain, 25° C., 1:1 binding model; read-out: moHER2-SPR-ONC KD
pKd: −log10 of the molar value. Counter-ions that a name gives are not always drawn. Positions of bridges follow the written chain, without caps; N, C: chain ends. Non-standard residues stand in square brackets, D forms with d. Residues, ends and D or L forms follow the SMILES beside them. Trp(5-OH) = N[C@@H](Cc1c[nH]c2ccc(O)cc12)C(=O)O; NMePhe(4-F) = CN[C@@H](Cc1ccc(F)cc1)C(=O)O; NMehPhe = CN[C@@H](CCc1ccccc1)C(=O)O; Aad = N[C@@H](CCCC(=O)O)C(=O)O; Gly(cPr) = N[C@H](C(=O)O)C1CC1; NMeK = CN[C@@H](CCCCN)C(=O)O; NMeDap = CN[C@@H](CN)C(=O)O; NMeS = CN[C@@H](CO)C(=O)O
This listing pairs compounds with measured pKd.
REPORTED ENDPOINT: pKd

COMPOUND	ASSAY SYSTEM	LIMIT QUALIFIER	NUMBER
CC(=O)NCCCC[C@H]1C(=O)N[C@@H](Cc2c[nH]c3ccc(O)cc23)C(=O)N[C@@H](C)C(=O)N[C@@H](C2CC2)C(=O)N(C)[C@H](C(=O)N(C)[C@@H](Cc2ccc(F)cc2)C(=O)N[C@@H](CCCCN)C(N)=O)CNC(=O)CCC[C@H](NC(C)=O)C(=O)N[C@@H](Cc2ccc(O)cc2)C(=O)N[C@@H](CO)C(=O)N(C)[C@@H](CCc2ccccc2)C(=O)N1C [Example A45, TFA salt] (Ac-[Aad]YS[NMehPhe][NMeK](Ac)[Trp(5-OH)]A[Gly(cPr)][NMeDap][NMePhe(4-F)]K-NH2; lactam 1-9)	mouse HER2 (23-653) (Mus musculus)	<	5.22
CC(=O)N[C@H]1CCC(=O)NC[C@@H](C(=O)N(C)[C@@H](Cc2ccc(F)cc2)C(N)=O)N(C)C(=O)[C@H](C2CC2)NC(=O)[C@H](Cc2c[nH]c3ccccc23)NC(=O)[C@H](Cc2c[nH]c3ccc(O)cc23)NC(=O)[C@H](CO)N(C)C(=O)[C@H](CCc2ccccc2)N(C)C(=O)[C@H](CCCC(=O)O)NC(=O)[C@H](Cc2ccc(O)cc2)NC1=O [Example A27] (Ac-EY[Aad][NMehPhe][NMeS][Trp(5-OH)]W[Gly(cPr)][NMeDap][NMePhe(4-F)]-NH2; lactam 1-9)	mouse HER2 (23-653) (Mus musculus)	=	6.68

* * *

Biological target: human HER2 (23-652) (Homo sapiens)
Assay: TR-FRET competition assay for peptide potency, human HER2
Type: binding
Design: towards human HER2 (23-652) and mouse HER2 (23-653); made in house; host or cells: mammalian cells
Conditions: huHER2 TR-FRET IC50, TR-FRET competition with Cy5 labeled peptide probe, 0.1 nM human HER2, 24 h incubation
Experimental: Both proteins containing a His-, Avi-tag and biotin in Nterminus, were expressed in mammalian cells and produced in house. […] Standard assay conditions consist of 20 uL total volume in white 384-well plates (Greiner), in 10 mM HEPES buffer containing 150 mM NaCl, 3 mM EDTA, 0.05% Tween20 and 1% final DMSO. […] The ratiometric FRET assay readout is calculated from the ratio of the raw data of the two distinct fluorescence signals measured in time resolved mode (fluorescence 665 nm/fluorescence 620 nm). […]
pIC50: −log10 of the molar value. Structures can show the parent of a compound that is named as a salt. Starred links: 1 amine or outer side, 2 acyl side, 3 side chain; linkers in the order of their positions; H or OH if unused. Positions of bridges follow the written chain, without caps; N, C: chain ends. Non-standard residues stand in square brackets, D forms with d. Residues, ends and D or L forms follow the SMILES beside them. Trp(5-OH) = N[C@@H](Cc1c[nH]c2ccc(O)cc12)C(=O)O; NMePhe(4-F) = CN[C@@H](Cc1ccc(F)cc1)C(=O)O; NMehPhe = CN[C@@H](CCc1ccccc1)C(=O)O; X3 = NC[C@H](CCC(=O)[*:2])C(=O)[*:1]; NMeE = CN[C@@H](CCC(=O)O)C(=O)O; Gly(cPr) = N[C@H](C(=O)O)C1CC1; NMeDap = CN[C@@H](CN)C(=O)O; NMeS = CN[C@@H](CO)C(=O)O; Dap = NC[C@H](N)C(=O)O
REPORTED ENDPOINT: pIC50

COMPOUND	REPORTED ENDPOINT	NUMBER
CN1C(=O)[C@H](CO)NC(=O)[C@H](Cc2ccc(O)cc2)NC(=O)[C@@H](N)CNC(=O)CC[C@@H](C(=O)N(C)[C@@H](Cc2ccc(F)cc2)C(N)=O)N(C)C(=O)[C@H](C2CC2)NC(=O)[C@H](Cc2c[nH]c3ccccc23)NC(=O)[C@H](Cc2c[nH]c3ccc(O)cc23)NC(=O)[C@H](CO)N(C)C(=O)[C@@H]1CCc1ccccc1 [Example A34, TFA salt] (H-[Dap]YS[NMehPhe][NMeS][Trp(5-OH)]W[Gly(cPr)][NMeE][NMePhe(4-F)]-NH2; lactam 1-9)	pIC50	6.80
CN1C(=O)[C@H](CO)NC(=O)[C@H](Cc2ccc(O)cc2)NC(=O)[C@@H](N)CC(=O)NC[C@@H](C(=O)N(C)[C@@H](Cc2ccc(F)cc2)C(N)=O)N(C)C(=O)[C@H](C2CC2)NC(=O)[C@H](Cc2c[nH]c3ccccc23)NC(=O)[C@H](Cc2c[nH]c3ccc(O)cc23)NC(=O)[C@H](CO)N(C)C(=O)[C@@H]1CCc1ccccc1 [Example A37, TFA salt] (H-DYS[NMehPhe][NMeS][Trp(5-OH)]W[Gly(cPr)][NMeDap][NMePhe(4-F)]-NH2; lactam 1-9)	pIC50	6.09
CN1C(=O)[C@H](CO)NC(=O)[C@H](Cc2ccc(O)cc2)NC(=O)[C@H](CN)CCC(=O)NC[C@@H](C(=O)N(C)[C@@H](Cc2ccc(F)cc2)C(N)=O)N(C)C(=O)[C@H](C2CC2)NC(=O)[C@H](Cc2c[nH]c3ccccc23)NC(=O)[C@H](Cc2c[nH]c3ccc(O)cc23)NC(=O)[C@H](CO)N(C)C(=O)[C@@H]1CCc1ccccc1 [Example A39, TFA salt] (YS[NMehPhe][NMeS][Trp(5-OH)]W[Gly(cPr)][NMeDap][NMePhe(4-F)]-NH2; linker N-8 via X3)	pIC50	6.89

* * *

Target: human HER2 (23-652) (Homo sapiens, UniProt P04626)
Experiment: Surface plasmon resonance (SPR) for assessment of peptide affinity, human HER2
Format: binding
Set-up: towards human HER2 (23-652) and mouse HER2 (23-653); made in house
Conditions: SPR, human HER2 extracellular domain, 25° C., 1:1 binding model; read-out: huHER2-SPR-ONC KD
Description: Each protein was immobilized either onto a SA sensorchip (Cytiva, BR-1005-31) or CM5 sensorchip (Cytiva, BR-1005-30) to a density of 800-2000 RU. […] For the assay setup the same conditions (flow rate, running buffer, peptide dilution) as described above were used. In a first step the Anti Fc IgG Ab (from Human Antibody Capture Kit, Ref. 29234600, Cytiva) was diluted into acetate pH 5.0 at 25 ug/mL and immobilized at a flow rate of 10 uL/min over 360 s to reach a density around 6000 RU. […]
pKd: −log10 of the molar value. Starred links: 1 amine or outer side, 2 acyl side, 3 side chain; linkers in the order of their positions; H or OH if unused. Positions of bridges follow the written chain, without caps; N, C: chain ends. Non-standard residues stand in square brackets, D forms with d. Residues, ends and D or L forms follow the SMILES beside them. Trp(5-OH) = N[C@@H](Cc1c[nH]c2ccc(O)cc12)C(=O)O; NMePhe(4-F) = CN[C@@H](Cc1ccc(F)cc1)C(=O)O; X2 = O=C([C@H](Cc1ccc(O)nc1)N[*:1])[*:2]; NMehPhe = CN[C@@H](CCc1ccccc1)C(=O)O; Gly(cPr) = N[C@H](C(=O)O)C1CC1; NMeDap = CN[C@@H](CN)C(=O)O; NMeS = CN[C@@H](CO)C(=O)O
REPORTED ENDPOINT: pKd

COMPOUND	REPORTED ENDPOINT	NUMBER
CC(=O)N[C@H]1CCCC(=O)NC[C@@H](C(=O)N(C)[C@@H](Cc2ccc(F)cc2)C(=O)N[C@@H](CCCCNC(=O)CN2CCN(CC(=O)O)CCN(CC(=O)O)CCN(CC(=O)O)CC2)C(N)=O)N(C)C(=O)[C@H]([C@H](C)O)NC(=O)[C@H](Cc2c[nH]c3ccccc23)NC(=O)[C@H](Cc2c[nH]c3ccc(O)cc23)NC(=O)[C@H](CCCCNC(=O)CO)N(C)C(=O)[C@H](CCc2ccccc2)N(C)C(=O)[C@H](CO)NC(=O)[C@H](Cc2ccc(O)cc2)NC1=O [Example B6]	pKd	9.30
CC(=O)N[C@H]1CCC(=O)NC[C@@H](C(=O)N(C)[C@@H](Cc2ccc(F)cc2)C(N)=O)N(C)C(=O)[C@H](C2CC2)NC(=O)[C@H](Cc2c[nH]c3ccccc23)NC(=O)[C@H](Cc2c[nH]c3ccc(O)cc23)NC(=O)[C@H](CO)N(C)C(=O)[C@H](CCc2ccccc2)N(C)C(=O)[C@H](CO)NC(=O)[C@H](Cc2ccc(O)nc2)NC1=O [Example A1] (Ac-E[X2]S[NMehPhe][NMeS][Trp(5-OH)]W[Gly(cPr)][NMeDap][NMePhe(4-F)]-NH2; lactam 1-9)	pKd	7.01
